B1: MYL5 (parent)
chain: DVAGNLDYKALSYVITHGEEKEE

# Variants of: B1
# assay_procedure: protein stability index of a GFP-peptide fusion (GPS, HEK-293T) (PSI 1-6); higher = more stable;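 also: lentivirally expressed fusions sorted by FACS into six bins by GFP to DsRed ratio, PSI derived from sequencing read proportions per bin multiplied by bin number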
# measurement_conditions: c terminus: native

# monomer_sequence, protein stability index
measured = [
    ("DVAGNLDYKALSYVITHGEEKFE [E22F]", 4.43),
    ("DVAGNLDYKALSYVIIHGEEKEE [T16I]", 2.33),
    ("DVAGNNDYKALSYVITHGEEKEE [L6N]", 3.84),
    ("DVAGNLDYSALSYVITHGEEKEE [K9S]", 1.56),
    ("DVAGNLDYKALSYVITHGECKEE [E20C]", 1.47),
    ("DVAGNLSYKALSYVITHGEEKEE [D7S]", 2.5),
    ("DVTGNLDYKALSYVITHGEEKEE [A3T]", 2.21),
    ("DVAGNLDYKASSYVITHGEEKEE [L11S]", 1.36),
    ("DVAGNLDYKALSYVIHHGEEKEE [T16H]", 2.48),
    ("DVAGNLDYKAASYVITHGEEKEE [L11A]", 2.56),
    ("DVAGNLDYKALSYVITHGEHKEE [E20H]", 2.53),
    ("DVAGNLDYKALSYVITHGMEKEE [E19M]", 1.08),
    ("DVWGNLDYKALSYVITHGEEKEE [A3W]", 3.06),
    ("DVAGNLDYKALSYVITHGEEKEG [E23G]", 4.37),
    ("TVAGNLDYKALSYVITHGEEKEE [D1T]", 2.13),
    ("DVAGNLYYKALSYVITHGEEKEE [D7Y]", 2.1),
    ("DVAGNCDYKALSYVITHGEEKEE [L6C]", 1.74),
    ("DVAGNLDYKALSYVITHGEEFEE [K21F]", 1.37),
    ("DVAGNLDYKAKSYVITHGEEKEE [L11K]", 2.08),
    ("DVAGNLDYKALSYVISHGEEKEE [T16S]", 1.89),
    ("DVAGNLDYKALSYVVTHGEEKEE [I15V]", 2.59),
    ("DVAGNLDYHALSYVITHGEEKEE [K9H]", 1.53),
    ("DVAGNLDYKALSYVITHGEEEEE [K21E]", 3.8),
    ("DVAGNLDYKALSYVMTHGEEKEE [I15M]", 1.82),
    ("DVAGNKDYKALSYVITHGEEKEE [L6K]", 2.06),
    ("DVAGNLDYKALTYVITHGEEKEE [S12T]", 3.01),
    ("DYAGNLDYKALSYVITHGEEKEE [V2Y]", 4.5),
    ("DVAGNHDYKALSYVITHGEEKEE [L6H]", 2.28),
    ("DVAGNLDQKALSYVITHGEEKEE [Y8Q]", 1.98),
    ("DVAGNLDYKALSYVITDGEEKEE [H17D]", 2.89),
    ("DVAGNLDYKALSYFITHGEEKEE [V14F]", 2.25),
    ("DVAGNLIYKALSYVITHGEEKEE [D7I]", 1.44),
    ("DVAGNLDYKALSKVITHGEEKEE [Y13K]", 2.46),
    ("DVAGNLEYKALSYVITHGEEKEE [D7E]", 2.29),
]
